System: HCT-116 colon
assayRemarks: NCI tumour cell line growth inhibition, 48 h
measuredMetric: TGI

(Q) Request the reported TGI associated with c1ccc(C2C3=C(c4ccccc4CC3)N3c4cc5nc6ccccc6nc5cc4NC34CCCCC24)cc1 (stereo unspecified)
(A) > 10 µM

(Q) Query: TGI; subject: COc1cc2cc(Oc3ccc(NC(=O)Nc4ccc(F)c(C(F)(F)F)c4)cc3)c(C)nc2cc1OCCN1CCOCC1
(A) 11.2 µM

(Q) Any idea what its TGI is? The compound is CO[C@@H]1[C@H](N(C)C(=O)c2ccccc2)C[C@@H]2O[C@]1(C)n1c3ccccc3c3c4c(c5c6ccccc6n2c5c31)C(=O)NC4=O
(A) > 100 µM

(Q) Entry CC12CCC3C(CCC4(O)C=CCCC34C=O)C1(O)CC(O)C2c1ccc(=O)oc1 (stereo unspecified) has what TGI?
(A) 0.22 µM

(Q) Item under review: NS(=O)(=O)c1ccc(N=Nc2c(O)[nH]c3cccc(CCc4ccncc4)c23)cc1 . Reported TGI?
(A) > 25 µM

(Q) Quick one: TGI of Cc1cc2c(=O)cc(-c3ccc(O)cc3)oc2c(C(=O)O)c1C ?
(A) > 100 µM

(Q) So what's the measured TGI for this one? COC(=O)CCC(=O)C(CC(=O)OC)C(=O)CCC(=O)NCCc1ccccc1 (stereo unspecified)
(A) > 100 µM

(Q) GET /values?readout=TGI&item= ClCCN(CCCl)c1ccc(OCc2ccccc2)cc1
(A) 26.9 µM

(Q) Which TGI is reported for this compound? COc1ccc(-c2nc(SCC(=O)N/N=C/c3ccc([N+](=O)[O-])cc3)[nH]c2-c2ccc(OC)cc2)cc1
(A) 37.3 µM

(Q) For O=c1cc(CN2CCCCC2)[nH]c2c1ccc1nc(CN3CCCCC3)cc(=O)n12 , what is its reported TGI?
(A) > 100 µM

(Q) Value lookup for TGI; key = O=c1n(Cc2ccccc2)c2ccccc2n1CC1CS1 (stereo unspecified)
(A) > 100 µM

###

Tested on: MALME-3M melanoma
assayRemarks: NCI tumour cell line growth inhibition, 48 h
measuredMetric: TGI

(Q) Which TGI is reported for this molecule? COc1ccc(C(=O)/C=C/c2ccc(OCC(=O)N3CCN(c4ccccc4)CC3)cc2)cc1OC
(A) > 10 µM

(Q) What does the data say about its TGI? Entry: COc1ccc(/C=C2\N=C(N3CCOCC3)NC2=O)cc1
(A) > 100 µM

(Q) Quick check: TGI of Cc1cc(N(C)C)ccc1N=Nc1ccc2ncccc2c1 ?
(A) > 100 µM

(Q) Requested field: TGI. Item: CCOC(=O)c1csc(NC(=O)CCN2CCOCC2)n1
(A) > 100 µM

###

System: IGROV1 ovarian
assayRemarks: NCI tumour cell line growth inhibition, 48 h
measuredMetric: TGI

(Q) Write down the reported TGI of CCOC(=O)c1sc2c(c1OC(=O)c1ccc(Cl)cc1Cl)c(=O)n(-c1ccccc1)c(=S)n2-c1ccccc1 , test system: IGROV1 ovarian.
(A) > 40.9 µM

(Q) Give recorded TGI with IGROV1 ovarian for the following compound: O=C(Cc1c(C(=O)Nc2ccccc2)sc(C(=O)Nc2ccccc2)c1CC(=O)Nc1ccccc1)Nc1ccccc1
(A) > 100 µM

(Q) Provide value of TGI for this record tested with IGROV1 ovarian: Nc1n[nH]c2ccc([C@H]3[C@@H]4C5CCC(C5)[C@@H]4c4c(ccc5[nH]ncc45)N3S(=O)(=O)C3CC3)cc12 (stereo partly drawn)
(A) > 38.7 µM
